# target system: 11β-HSD1 (Homo sapiens)
# Sequence (P28845 whole entry): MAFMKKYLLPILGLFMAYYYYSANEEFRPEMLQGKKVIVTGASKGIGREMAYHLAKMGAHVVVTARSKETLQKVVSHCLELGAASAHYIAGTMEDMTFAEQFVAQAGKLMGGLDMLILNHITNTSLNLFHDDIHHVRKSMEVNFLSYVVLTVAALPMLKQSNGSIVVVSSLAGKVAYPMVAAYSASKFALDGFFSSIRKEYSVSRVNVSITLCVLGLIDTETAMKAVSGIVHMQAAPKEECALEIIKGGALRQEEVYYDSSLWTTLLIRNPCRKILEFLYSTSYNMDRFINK
# assay protocol: biochemical
# experimental context: read-out: Average % inhibition at 100 nM
endpoint name: inhibition at 0.1 µM (%)
State just the number; it will be interpreted in %.

Q: Tell us which inhibition at 0.1 µM value is on record for Cc1ccc(-c2ccc([C@H](C)N3CC[C@](CC(C)(C)O)(c4ccc(F)cc4)OC3=O)cc2)nn1
Result: 94.7

Q: Tell us which inhibition at 0.1 µM value is on record for Cc1cc(-c2ccc([C@H](C)N3CC[C@](CC(C)(C)O)(c4ccccc4)OC3=O)cc2)cc(C)[n+]1[O-]
Result: 97.3

Q: Tell us which inhibition at 0.1 µM value is on record for COc1ccc(-c2ccc([C@H](C)N3CC[C@](CCC(N)=O)(c4ccc(F)cc4)OC3=O)cc2)cn1
Result: 95.6

Q: Tell us which inhibition at 0.1 µM value is on record for Cc1cc(-c2ccc([C@H](C)N3CC[C@](C)(c4ccc(F)cc4)OC3=O)cc2)ccn1 (single isomer, unassigned)
Result: 93.6

Q: Tell us which inhibition at 0.1 µM value is on record for Cc1cc(-c2ccc([C@H](C)N3CC[C@](CCC(=O)O)(c4ccc(F)cc4)OC3=O)cc2)ccn1
Result: 79.9

Q: Tell us which inhibition at 0.1 µM value is on record for C[C@@H](c1ccc(-c2ccc(S(C)(=O)=O)cn2)cc1)N1CC[C@](CC(C)(C)O)(c2ccccc2)OC1=O
Result: 95.2

Q: Tell us which inhibition at 0.1 µM value is on record for C[C@@H](c1ccc(-c2cccnc2)cc1)N1CC[C@](CCCO)(c2ccc(F)cc2)OC1=O
Result: 96.5

Q: Tell us which inhibition at 0.1 µM value is on record for C[C@@H](c1ccc(-c2cnc(C#N)cn2)cc1)N1CC[C@](CC(C)(C)O)(c2ccc(F)cc2)OC1=O
Result: 94.7

Q: Tell us which inhibition at 0.1 µM value is on record for C[C@@H](c1ccc(-c2cncc(C(N)=O)n2)cc1)N1CC[C@](CC(C)(C)O)(c2ccc(F)cc2)OC1=O
Result: 94.6

Q: Tell us which inhibition at 0.1 µM value is on record for C[C@@H](c1ccc(-c2ccc(C(C)(C)O)nn2)cc1)N1CC[C@](CC(C)(C)O)(c2ccccc2)OC1=O
Result: 93.3

Q: Tell us which inhibition at 0.1 µM value is on record for COc1ccc(-c2ccc([C@H](C)N3CC[C@](CCO)(c4ccc(F)cc4)OC3=O)cc2)cn1
Result: 101

Q: Tell us which inhibition at 0.1 µM value is on record for C[C@@H](c1ccc(-c2ccc(F)cn2)cc1)N1CC[C@](CCCO)(c2ccccc2)OC1=O
Result: 95.2

Q: Tell us which inhibition at 0.1 µM value is on record for Cc1nnc(-c2ccc([C@H](C)N3CC[C@](CC(C)(C)O)(c4ccccc4)OC3=O)cc2)s1
Result: 97.9

Q: Tell us which inhibition at 0.1 µM value is on record for C=CC[C@]1(c2ccc(F)cc2)CCN([C@@H](C)c2ccc(-c3cncc(Cl)c3)cc2)C(=O)O1
Result: 97.1

###

# target system: 11β-HSD1 (Homo sapiens)
# assay protocol: Biological Test Example 4: microsomal 11β-HSD1 in the presence of 50% human plasma
# experimental context: IC50 in Test Example 4 divided by IC50 in Test Example 1
Task for the reader: assign each of the following molecules its reported Shift.
Write the value as a bare number.

Q: Tell us which Shift value is on record for C[C@@H](c1ccc(-c2ccc(OCCF)nc2)cc1)N1CC[C@](CC(C)(C)O)(c2ccccc2)OC1=O [EXAMPLE 200]
Result: 19.1

Q: Tell us which Shift value is on record for C[C@@H](c1ccc(-c2cnc(C(=O)NC3CC3)nc2)cc1)N1CC[C@](CC(C)(C)O)(c2ccccc2)OC1=O [EXAMPLE 15]
Result: 2.4

Q: Tell us which Shift value is on record for C[C@@H](c1ccc(-c2ccnc(N)c2)cc1)N1CC[C@](CCCO)(c2ccccc2)OC1=O [EXAMPLE 125]
Result: 12.3

Q: Tell us which Shift value is on record for COc1ccc(-c2ccc([C@H](C)N3CC[C@](CCCO)(c4ccc(F)cc4)OC3=O)cc2)cn1 [EXAMPLE 65]
Result: 8.8
